Molecular target: human TLR8 (Homo sapiens)
Construct: host or cells: HEK-Blue cells
Assay: TLR8 inhibition reporter assay (HEK-Blue SEAP reporter, R848 stimulation)
Assay type: cell-based
Conditions: HEK-Blue cells overexpressing human TLR8, SEAP reporter, R848 15.9 μM, 22 hour incubation
Would you mind telling me the reported IC50 of each entry?
Reply numerically in nM, unit not repeated.

**Query** Data request, read-out IC50, for Cc1cc(-c2[nH]c3ccc(C4CCN(C(C)C)CC4)cc3c2C(C)C)cn(C)c1=O
**Result** 7.3

**Query** Data request, read-out IC50, for Cc1c(-c2[nH]c3ccc(C4CCN(CC(C)(C)O)CC4)c(F)c3c2C(C)C)cn(C)c(=O)c1Cl
**Result** 1.6

**Query** Data request, read-out IC50, for CC(C)c1c(-c2cn(C)c(=O)cn2)[nH]c2ccc(C3CCNCC3)cc12
**Result** 38.4

**Query** Data request, read-out IC50, for CCCN1CCC(c2ccc3[nH]c(-c4cn(C)c(=O)c(-c5cnn(C)c5)c4C)c(C(C)C)c3c2)CC1
**Result** 11.1

---

Target: human TLR8 (Homo sapiens, UniProt Q9NR97)
Sequence (Q9NR97 27-1041): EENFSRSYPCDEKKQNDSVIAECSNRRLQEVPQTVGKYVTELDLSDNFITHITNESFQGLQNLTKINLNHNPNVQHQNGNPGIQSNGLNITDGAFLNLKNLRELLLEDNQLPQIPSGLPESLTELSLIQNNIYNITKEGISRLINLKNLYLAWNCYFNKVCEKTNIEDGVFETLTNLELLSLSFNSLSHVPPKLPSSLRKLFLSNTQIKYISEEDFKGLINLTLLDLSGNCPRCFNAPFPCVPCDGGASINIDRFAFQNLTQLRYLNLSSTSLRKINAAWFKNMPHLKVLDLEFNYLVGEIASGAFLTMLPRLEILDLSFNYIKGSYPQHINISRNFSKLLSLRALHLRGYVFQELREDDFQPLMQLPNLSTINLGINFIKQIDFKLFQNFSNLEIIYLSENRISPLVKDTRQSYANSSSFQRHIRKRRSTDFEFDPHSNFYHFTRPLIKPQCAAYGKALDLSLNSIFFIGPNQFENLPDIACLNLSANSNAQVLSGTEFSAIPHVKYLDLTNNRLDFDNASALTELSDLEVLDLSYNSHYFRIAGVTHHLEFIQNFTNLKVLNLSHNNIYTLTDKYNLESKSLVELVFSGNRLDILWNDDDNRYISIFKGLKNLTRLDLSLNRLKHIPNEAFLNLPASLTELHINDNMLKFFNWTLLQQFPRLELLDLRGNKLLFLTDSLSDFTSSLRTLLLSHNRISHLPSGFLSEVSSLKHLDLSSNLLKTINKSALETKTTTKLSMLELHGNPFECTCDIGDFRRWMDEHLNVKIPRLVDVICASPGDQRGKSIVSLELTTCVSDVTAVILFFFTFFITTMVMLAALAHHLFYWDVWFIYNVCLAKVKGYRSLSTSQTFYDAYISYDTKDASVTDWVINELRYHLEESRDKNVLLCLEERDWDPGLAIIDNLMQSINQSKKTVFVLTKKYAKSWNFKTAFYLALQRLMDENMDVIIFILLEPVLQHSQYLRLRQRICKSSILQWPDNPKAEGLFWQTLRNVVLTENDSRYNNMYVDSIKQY
Experiment: TLR8 inhibition reporter assay (HEK-Blue SEAP reporter, R848 stimulation)
Conditions: HEK-Blue cells overexpressing human TLR8, SEAP reporter, R848 15.9 μM, 22 hour incubation
pIC50: −log10 of the molar value.
Assign Criterion met to entries whose pIC50 meets or exceeds 8; assign Criterion not met to the rest.

**Query** Does Cc1nc(-c2[nH]c3ccc(C4CCN(C)CC4)cc3c2C(C)C)cn(C)c1=O [Example 183] have a reported pIC50 of at least 8?
**Result** Criterion not met

**Query** Does Cc1cc(-c2[nH]c3ccc(C4CCN(Cc5ncn(C)n5)CC4)cc3c2C(C)C)cn(C)c1=O [Example 72] have a reported pIC50 of at least 8?
**Result** Criterion not met

**Query** Does Cc1cc(-c2[nH]c3ccc(C4CCN(Cc5cc(Cl)ccc5F)CC4)cc3c2C(C)C)cn(C)c1=O [Example 80] have a reported pIC50 of at least 8?
**Result** Criterion not met

**Query** Does CC(C)c1c(-c2cn(C)c(=O)n(C)c2=O)[nH]c2ccc(C3CCNCC3)cc12 [Example 21] have a reported pIC50 of at least 8?
**Result** Criterion not met

**Query** Does CCCN1CCC(c2ccc3[nH]c(-c4cc(-c5cnc(C(F)(F)F)nc5)c(=O)n(C)c4)c(C(C)C)c3c2)CC1 [Example 339] have a reported pIC50 of at least 8?
**Result** Criterion not met

**Query** Does Cc1cc(-c2[nH]c3ccc(C4CCNCC4)cc3c2C(C)C)cn(Cc2ccccc2)c1=O [Example 46] have a reported pIC50 of at least 8?
**Result** Criterion not met

**Query** Does CC(C)c1c(-c2cc(-c3cncnc3)c(=O)n(C)c2)[nH]c2ccc(C3CCN(CC4COC4)CC3)cc12 [Example 94] have a reported pIC50 of at least 8?
**Result** Criterion met

**Query** Does CCCN1CCC(c2ccc3[nH]c(-c4cc(-c5ccc(F)nc5)c(=O)n(C)c4)c(C(C)C)c3c2)CC1 [Example 341] have a reported pIC50 of at least 8?
**Result** Criterion met

**Query** Does Cc1cc(-c2[nH]c3ccc(C4CCN(CC(=O)N(C)C)CC4)cc3c2C(C)C)cn(CC(C)C)c1=O [Example 163] have a reported pIC50 of at least 8?
**Result** Criterion not met

**Query** Does COc1ncccc1-c1cc(-c2[nH]c3ccc(C4CCNCC4)cc3c2C(C)C)cn(C)c1=O [Example 57] have a reported pIC50 of at least 8?
**Result** Criterion not met

**Query** Does CCCN1CCC(c2ccc3[nH]c(-c4cc(-c5cncnc5)c(=O)n(C)c4)c(C(C)C)c3c2)CC1 [Example 249] have a reported pIC50 of at least 8?
**Result** Criterion met

**Query** Does Cc1c(-c2[nH]c3ccc(C4CCN(C(C)(C)C(N)=O)CC4)cc3c2C(C)C)cn(C)c(=O)c1Cl [Example 154] have a reported pIC50 of at least 8?
**Result** Criterion not met
